- Target: T1, human IL-6 (human, UniProt P05231 30-212)
- T1 construct: also called interleukin-6
- T1 sequence (P05231 30-212 limits assumed): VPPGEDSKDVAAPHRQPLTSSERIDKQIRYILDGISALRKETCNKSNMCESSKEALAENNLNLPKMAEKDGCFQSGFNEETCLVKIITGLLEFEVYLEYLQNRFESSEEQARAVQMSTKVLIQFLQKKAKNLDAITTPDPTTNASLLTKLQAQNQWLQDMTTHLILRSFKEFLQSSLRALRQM
- Experiment summary: SPR (Biacore T200), antibody from cell supernatant captured on Protein A, IL-6 flowed over, 37 C
Measurement name: Kd (nM)
Response body: numeric value in nM, unit text excluded.

Answered cases to consult:
Binder: anti-IL-6 antibody, heavy chain T65D, G66D / light chain WT (antibody, human IgG1, V domains shown, Derived as m2; Engineered human IgG1) VH: EVQLVESGGGLVQPGGSLRLSCAASGFTFSPFAMSWVRQAPGKGLEWVAKISPGGSWTYYSDTVDDRFTFSLDTSKSTAYLQMNSLRAEDTAVYYCARQLWGYYALDIWGQGTLVTVSS VL: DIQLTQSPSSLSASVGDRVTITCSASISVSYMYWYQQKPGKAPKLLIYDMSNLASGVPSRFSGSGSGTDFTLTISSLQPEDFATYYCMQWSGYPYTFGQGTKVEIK
Unit string: nM
Kd: 0.203
--
Binder: anti-IL-6 antibody, heavy chain WT / light chain WT (antibody, human IgG1, V domains shown, Full antibody on an engineered human IgG1 framework, Fc with L234A, L235A, G237A and L443C (EU numbering), expressed in Expi293 cells; also called wild-type; parent molecule) VH: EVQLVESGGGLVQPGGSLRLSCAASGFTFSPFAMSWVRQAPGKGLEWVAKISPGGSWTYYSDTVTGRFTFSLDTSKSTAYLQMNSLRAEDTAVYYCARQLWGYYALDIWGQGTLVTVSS VL: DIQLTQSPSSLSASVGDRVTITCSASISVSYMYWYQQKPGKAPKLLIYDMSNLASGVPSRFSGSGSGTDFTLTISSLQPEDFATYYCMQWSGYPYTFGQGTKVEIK
Unit string: nM
Kd: 0.381

Let's switch to this binder now.
Sure, the documented Kd for anti-IL-6 antibody, heavy chain S35Y, G66D / light chain WT (antibody, human IgG1, V domains shown, Derived as m2; Engineered human IgG1) VH: EVQLVESGGGLVQPGGSLRLSCAASGFTFSPFAMYWVRQAPGKGLEWVAKISPGGSWTYYSDTVTDRFTFSLDTSKSTAYLQMNSLRAEDTAVYYCARQLWGYYALDIWGQGTLVTVSS VL: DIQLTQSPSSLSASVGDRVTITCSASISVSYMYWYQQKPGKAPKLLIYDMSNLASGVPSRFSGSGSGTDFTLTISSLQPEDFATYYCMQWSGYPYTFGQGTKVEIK is 0.503
